Test system: MDA-MB-436 cells
Assay: Proliferation assay MDA-MB-436, negative control cell line (Alamar Blue, 144 h)
Format: cell-based
Details: arithmetic mean
property.name: EC50

Look up EC50 for this compound: Cc1ccc2cccc(S(=O)(=O)NC(=O)c3cc4ccc(N(C)C)cc4o3)c2n1 [Example 21]
15.3 µM

// query: CN(C)c1ccc2cc(C(=O)NS(=O)(=O)c3cccc4c3OC(F)(F)C(F)(F)O4)oc2c1 [Example 134]
> 20 µM

// query: C[C@@H](Oc1cccc(OC2CCC2)c1S(=O)(=O)NC(=O)c1cc2ccc(N(C)C)cc2o1)C(F)(F)F (single isomer, unassigned) [Example 222]
> 20 µM

// query: C[C@H](Oc1cccc(OC2CCC2)c1S(=O)(=O)NC(=O)c1cc2ccc(N(C)C)cc2o1)C(F)(F)F (single isomer, unassigned) [Example 221]
8.25 µM

// query: Cc1ccc2cccc(S(=O)(=O)NC(=O)c3cc4c(F)cc(N(C)C)cc4o3)c2n1 [Example 227]
> 14.9 µM

// query: CCOc1ccccc1S(=O)(=O)NC(=O)c1cc2ccc(N(C)C)cc2o1 [Example 19]
> 20 µM

// query: CC(C)Oc1ccccc1S(=O)(=O)NC(=O)c1cc2ccc(N(C)C)cc2o1 [Example 66]
> 20 µM

----------
Field: IC50. Provide a value for each of the compounds that follow.
Target: Recombinant human His-tagged Kat6a protein (amino acids 194-810) (Homo sapiens (Human))
Sequence (Q92794 194-810): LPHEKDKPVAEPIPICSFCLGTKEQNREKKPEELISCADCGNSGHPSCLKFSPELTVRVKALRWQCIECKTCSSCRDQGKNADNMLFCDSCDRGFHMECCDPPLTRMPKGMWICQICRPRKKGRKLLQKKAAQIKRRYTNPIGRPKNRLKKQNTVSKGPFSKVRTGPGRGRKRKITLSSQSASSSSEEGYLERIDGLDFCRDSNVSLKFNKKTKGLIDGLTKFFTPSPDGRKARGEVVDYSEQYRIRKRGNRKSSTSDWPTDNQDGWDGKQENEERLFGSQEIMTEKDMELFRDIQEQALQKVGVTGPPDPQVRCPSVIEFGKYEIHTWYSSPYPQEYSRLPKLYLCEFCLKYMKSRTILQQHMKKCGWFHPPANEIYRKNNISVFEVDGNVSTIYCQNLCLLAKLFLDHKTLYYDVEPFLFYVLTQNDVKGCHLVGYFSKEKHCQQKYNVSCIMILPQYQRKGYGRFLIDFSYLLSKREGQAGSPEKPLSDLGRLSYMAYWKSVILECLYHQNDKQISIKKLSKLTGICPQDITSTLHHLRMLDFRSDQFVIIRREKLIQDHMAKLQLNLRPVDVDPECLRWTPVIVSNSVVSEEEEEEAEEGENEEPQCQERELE
Assay: Kat6a activity assay (TR-FRET, acetylation of biotinylated Histone-H4-derived peptide)
Settings: 60 mins at 22° C., read-out: KAT6A-DPF/HAT domain IC50 [mol/l] (arithmetic mean)

Look up IC50 for this compound: "CCOc1ccccc1S(=O)(=O)NC(=O)c1cc2ccc(N(C)CCOC)cc2o1"
2660 nM

// query: "CCCOc1ccc(C)cc1S(=O)(=O)NC(=O)c1cc2ccc(N(C)C)cc2o1"
64.6 nM

// query: "CN(C)c1ccc2cc(C(=O)NS(=O)(=O)c3cc(C(C)(C)C)ccc3OC3CCC3)oc2c1"
2.67 nM

// query: "CN(C)c1ccc2cc(C(=O)NS(=O)(=O)c3ccccc3Oc3ccccc3)oc2c1"
115 nM

// query: "CCOc1ccccc1S(=O)(=O)NC(=O)c1cc2ccc(N(C)C)c(F)c2o1"
4700 nM

// query: CC(C)c1ccc(OCC2CC2(F)F)c(S(=O)(=O)NC(=O)c2cc3ccc(N(C)C)cc3o2)c1 (racemic)
8.47 nM

// query: "Cc1cnc2c(S(=O)(=O)NC(=O)c3cc4ccc(N(C)C)cc4o3)cccc2c1"
97.3 nM

// query: "CN(C)c1ccc2cc(C(=O)NS(=O)(=O)c3cccnc3Cl)oc2c1"
3530 nM

// query: "CCOc1ccccc1S(=O)(=O)NC(=O)c1cc2ccc(N(C)CC)cc2o1"
1100 nM

// query: "CN(C)c1ccc2cc(C(=O)NS(=O)(=O)c3c(OCc4ccccc4)cccc3OC3CCC3)oc2c1"
4.5 nM

// query: "COc1ccc(Cl)c(S(=O)(=O)NC(=O)c2cc3ccc(N(C)C)cc3o2)c1"
329 nM

// query: CC(C)Oc1ccccc1S(=O)(=O)NC(=O)c1cc2ccc(N(C)C)cc2o1 [Example 66]
49.4 nM

// query: Cc1ccc2cccc(S(=O)(=O)NC(=O)c3cc4c(F)cc(N(C)C)cc4o3)c2n1 [Example 227]
4 nM

// query: "COc1ccc(C(C)(C)C)cc1S(=O)(=O)NC(=O)c1cc2ccc(N(C)C)cc2o1"
2.63 nM

// query: "CN(C)c1ccc2cc(C(=O)NS(=O)(=O)c3ccccc3OC3CC3)oc2c1"
28.3 nM

// query: "CN(C)c1ccc2cc(C(=O)NS(=O)(=O)c3cc(C#N)ccn3)oc2c1"
6240 nM

// query: "O=C(NS(=O)(=O)c1ccccc1-c1ccccc1)c1cc2ccc(N3CCCC3)cc2o1"
3600 nM

----------
Test system: ZR-75-1 cells
Assay: Proliferation assay ZR-75-1 (Alamar Blue, 144 h)
Assay type: cell-based
Details: Homo sapiens, ZR-75-1, 144 h, arithmetic mean, read-out: ZR75-1 proliferation assay, EC50 [M] (arithmetic mean)
Field: EC50. Provide a value for each of the compounds that follow.
Give just the number in M; leave the unit off.

Look up EC50 for this compound: CC(C)Cc1ccc2cccc(S(=O)(=O)NC(=O)c3cc4ccc(N(C)C)cc4o3)c2n1 [Example 93]
8.56e-07

// query: CN(C)c1ccc2cc(C(=O)NS(=O)(=O)c3c(Cl)cccc3C(F)(F)F)oc2c1 [Example 97]
6.15e-07

// query: CN(C)c1ccc2cc(C(=O)NS(=O)(=O)c3ccccc3OC(C)(C)C)oc2c1 [Example 68]
8.44e-08

----------
Tested on: ZR-75-1 cells
Assay: Proliferation assay ZR-75-1 (Alamar Blue, 144 h)
Type: cell-based
Details: Homo sapiens, ZR-75-1, 144 h, arithmetic mean, read-out: ZR75-1 proliferation assay, EC50 [M] (arithmetic mean)
Field: EC50. Provide a value for each of the compounds that follow.
Give just the number in M; leave the unit off.

Look up EC50 for this compound: "CN(C)c1ccc2cc(C(=O)NS(=O)(=O)c3ccccc3OC(F)(F)F)oc2c1"
8.14e-08

// query: "Cc1ccc2cccc(S(=O)(=O)NC(=O)c3cc4cc(F)c(N(C)C)cc4o3)c2n1"
2.84e-06

// query: "CN(C)c1ccc2cc(C(=O)NS(=O)(=O)c3cc(Br)cnc3Cl)oc2c1"
5.54e-06

// query: "CC(C)c1ccc(OCC(F)(F)F)c(S(=O)(=O)NC(=O)c2cc3ccc(N(C)C)cc3o2)c1"
8.65e-08

// query: "CCOc1ccccc1S(=O)(=O)NC(=O)c1cc2cc(Br)c(N(C)C)cc2o1"
8.31e-06

// query: "Cc1cc(Cn2cccn2)cc(S(=O)(=O)NC(=O)c2cc3ccc(N(C)C)cc3o2)c1C"
1.12e-06

// query: "CCOc1ccccc1S(=O)(=O)NC(=O)c1cc2cc(C#N)c(N(C)C)cc2o1"
6.4e-06

// query: "CCOc1ccc(Br)cc1S(=O)(=O)NC(=O)c1cc2c(F)cc(N(C)C)cc2o1"
1.02e-07

// query: "CCNc1ccc2cc(C(=O)NS(=O)(=O)c3ccccc3-c3ccccc3)oc2c1"
1.21e-06

// query: "CN(C)c1ccc2cc(C(=O)NS(=O)(=O)c3c(F)cccc3OC3CCC3)oc2c1"
4.37e-07

// query: "COc1ccc(Cl)c(S(=O)(=O)NC(=O)c2cc3ccc(N(C)C)cc3o2)c1"
7.07e-07

// query: "CN(C)c1ccc2cc(C(=O)NS(=O)(=O)c3ccccc3Cl)oc2c1"
2.02e-07

// query: "COc1ccc(Cn2cccn2)cc1S(=O)(=O)NC(=O)c1cc2ccc(N(C)C)cc2o1"
1.57e-07

// query: "CN(C)c1ccc2cc(C(=O)NS(=O)(=O)c3ccccc3OC(F)F)oc2c1"
2.22e-07

// query: "CCN(CC)c1ccc2cc(C(=O)NS(=O)(=O)c3ccccc3-c3ccccc3)oc2c1"
1.45e-05

// query: "CN(C)c1ccc2cc(C(=O)NS(=O)(=O)c3ccc(Cl)cc3Cl)oc2c1"
1.73e-06

// query: "CCNc1ccc2cc(C(=O)NS(=O)(=O)c3cccc4ccc(C)nc34)oc2c1"
8.91e-07

// query: "CCOc1cccc(F)c1S(=O)(=O)NC(=O)c1cc2ccc(N(C)C)cc2o1"
1.19e-07

// query: "COCCN(C)c1ccc2cc(C(=O)NS(=O)(=O)c3cccc4ccc(C)nc34)oc2c1"
2.17e-06

// query: "CN(C)c1cc(F)c2cc(C(=O)NS(=O)(=O)c3ccccc3-c3ccccc3)oc2c1"
5.72e-08

// query: "CCOc1ccc(NC(C)=O)cc1S(=O)(=O)NC(=O)c1cc2ccc(N(C)C)cc2o1"
1.49e-06

// query: "CCc1ccc(Cn2cccn2)cc1S(=O)(=O)NC(=O)c1cc2ccc(N(C)C)cc2o1"
1.95e-06

// query: "CN(C)c1ccc2cc(C(=O)NS(=O)(=O)c3cc(Br)cnc3NC3CC3)oc2c1"
3.73e-06

// query: "COc1ccc(S(=O)(=O)NC(=O)c2cc3ccc(N(C)C)cc3o2)cn1"
2.16e-06

// query: "CN(C)c1ccc2cc(C(=O)N[S@SP1](=O)(=O)c3cccc4ccccc34)oc2c1"
2.5e-07

// query: "CN(C)c1ccc2cc(C(=O)NS(=O)(=O)c3cc(C(C)(C)C)ccc3OCc3ccccc3)oc2c1"
6.79e-08

// query: "Cc1ccc2cccc(S(=O)(=O)NC(=O)c3cc4c(F)cc(N(C)C)cc4o3)c2n1"
8.07e-08

// query: "CCOc1ccc(F)cc1S(=O)(=O)NC(=O)c1cc2ccc(N(C)C)cc2o1"
1.1e-07

// query: "Cc1ccccc1-c1ccccc1S(=O)(=O)NC(=O)c1cc2ccc(N(C)C)cc2o1"
3.87e-08

// query: "CCOc1ccccc1S(=O)(=O)NC(=O)c1cc2ccc(N(C)CC)cc2o1"
8.76e-07

// query: "COc1ccccc1S(=O)(=O)NC(=O)c1cc2c(F)cc(N(C)C)cc2o1"
4.78e-08
